# tested.on: HIV-1 Env of isolate MGRM-AE-001 (pseudovirus) (HIV-1)
# assay.text: cell-based or functional assay
reported.metric: IC50 (µg/mL), pseudovirus neutralization
Provide the reading as a plain figure in µg/mL.

So for PGT-126 (5141_B17) (antibody, V domains shown) VH: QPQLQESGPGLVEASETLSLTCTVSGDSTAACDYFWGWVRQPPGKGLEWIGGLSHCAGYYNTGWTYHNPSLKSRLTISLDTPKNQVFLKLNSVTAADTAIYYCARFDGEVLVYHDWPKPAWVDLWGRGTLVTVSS VL: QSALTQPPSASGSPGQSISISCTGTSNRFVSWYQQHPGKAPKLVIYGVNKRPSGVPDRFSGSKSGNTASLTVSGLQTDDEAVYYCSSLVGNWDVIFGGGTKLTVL , the logged IC50 (µg/mL), pseudovirus neutralization turned out to be 9.68

So for PGT-125 (5123_A06) (antibody, V domains shown) VH: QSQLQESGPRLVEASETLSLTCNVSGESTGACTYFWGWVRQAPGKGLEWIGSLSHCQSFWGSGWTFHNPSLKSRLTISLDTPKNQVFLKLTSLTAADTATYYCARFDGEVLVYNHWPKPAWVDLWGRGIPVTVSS VL: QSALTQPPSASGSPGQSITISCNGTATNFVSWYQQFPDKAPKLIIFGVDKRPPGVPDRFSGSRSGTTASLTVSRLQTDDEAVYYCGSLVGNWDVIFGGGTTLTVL , the logged IC50 (µg/mL), pseudovirus neutralization turned out to be 2.95
